Hey, just so you know, these numbers are from patent US12473296B2.

Reported IC50 by item:
# assayed target: EIF2AK3 (PERK) catalytic domain (amino acids 536-1116) (Homo sapiens (Human), UniProt Q9NZJ5)
# Sequence (Q9NZJ5 536-1116): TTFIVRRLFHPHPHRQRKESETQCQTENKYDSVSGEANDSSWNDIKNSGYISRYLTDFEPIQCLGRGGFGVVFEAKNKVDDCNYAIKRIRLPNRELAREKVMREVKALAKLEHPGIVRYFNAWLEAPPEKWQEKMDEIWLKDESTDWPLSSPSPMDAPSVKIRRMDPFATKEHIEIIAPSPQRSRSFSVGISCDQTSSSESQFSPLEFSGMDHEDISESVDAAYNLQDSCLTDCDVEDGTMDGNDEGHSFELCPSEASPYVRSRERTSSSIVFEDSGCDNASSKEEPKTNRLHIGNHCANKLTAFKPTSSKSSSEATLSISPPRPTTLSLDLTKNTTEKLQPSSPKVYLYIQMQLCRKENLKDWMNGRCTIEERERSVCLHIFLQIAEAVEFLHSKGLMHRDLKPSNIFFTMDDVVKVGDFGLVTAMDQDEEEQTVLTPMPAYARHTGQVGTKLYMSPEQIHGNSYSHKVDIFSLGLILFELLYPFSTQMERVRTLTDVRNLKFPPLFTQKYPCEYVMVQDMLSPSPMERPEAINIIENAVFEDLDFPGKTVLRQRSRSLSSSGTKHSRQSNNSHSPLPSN
# assay protocol: PERK in vitro activity assay (isolated), TR-FRET kinase assay
# assay context: isolated PERK enzyme, 1.5 μM ATP, GFP-eIF2a substrate; read-out: Biochemical IC50
# Description: PERK In Vitro Activity Assay (Isolated): […] Express and purify HIS-SUMO-GCN2 catalytic domain (amino acids 584-1019) from E. coli. […] Monitor the resulting fluorescence in an EnVison® Multilabel reader (PerkinElmer, Waltham, MA). […]

[
  {
    "compound": "Nc1ncc(-c2ccc(NC(=O)C(O)c3cc(F)cc(F)c3)cc2Cl)nc1C(=O)NC1COC1 (stereo not shown) [Example 168]",
    "IC50": "51 to 100 nM"
  },
  {
    "compound": "CC(=O)N1CC(NC(=O)c2cc(-c3ccc(NC(=O)C(O)c4cc(F)cc(F)c4)cc3C)cnc2N)C1 (stereo not shown) [Example 31]",
    "IC50": "51 to 100 nM"
  },
  {
    "compound": "Cc1cc(NC(=O)[C@H](O)c2cc(F)cc(F)c2)ccc1-c1cnc(N)c(C(=O)NC2CC2)c1 [Example 14]",
    "IC50": "1 to 25 nM"
  },
  {
    "compound": "CC(C)NC(=O)c1cc(-c2ccc(NC(=O)C(O)c3cc(F)cc(F)c3)cc2C(F)(F)F)cnc1N (stereo not shown) [Example 36]",
    "IC50": "1 to 25 nM"
  },
  {
    "compound": "Cc1cc(NC(=O)Cc2cc(F)cc(F)c2)ccc1-c1cnc(N)c(C(=O)NC(C)C)c1 [Example 186]",
    "IC50": "51 to 100 nM"
  },
  {
    "compound": "CCc1cccc(C(O)C(=O)Nc2ccc(-c3cnc(N)c(C(=O)NC(C)C)c3)c(C)c2)c1 (single isomer, unassigned) [Example 73]",
    "IC50": "101 to 250 nM"
  },
  {
    "compound": "Cc1cc(NC(=O)Cc2cccc3cnccc23)ccc1-c1cnc(N)c(C(=O)NC(C)C)c1 [Example 211]",
    "IC50": "251 to 500 nM"
  },
  {
    "compound": "CCc1cc(NC(=O)C(O)c2cc(F)cc(F)c2)ccc1-c1cnc(N)c(C(=O)NCC(F)(F)F)c1 (stereo not shown) [Example 100]",
    "IC50": "1 to 25 nM"
  },
  {
    "compound": "CCc1cc(NC(=O)C(O)c2cccc(Cl)c2)ccc1-c1cnc(N)c(C(=O)NC(C)C)c1 (single isomer, unassigned) [Example 108]",
    "IC50": "1 to 25 nM"
  },
  {
    "compound": "Cc1cc(NC(=O)C(O)c2cc(F)cc(F)c2)ccc1-c1cnc(N)c(C(=O)NCC(C)C)c1 (stereo not shown) [Example 21]",
    "IC50": "101 to 250 nM"
  },
  {
    "compound": "CCc1cc(NC(=O)C(O)c2cc(F)cc(F)c2)ccc1-c1cnc(N)c(C(=O)NC2CC2)n1 (stereo not shown) [Example 157]",
    "IC50": "101 to 250 nM"
  },
  {
    "compound": "Cc1cc(NC(=O)C(O)c2cc(F)cc(F)c2)ccc1-c1cnc(N)c(C(=O)NC2COC2)c1 (stereo not shown) [Example 24]",
    "IC50": "1 to 25 nM"
  },
  {
    "compound": "CCNC(=O)c1cc(-c2ccc(NC(=O)C(O)c3cc(F)cc(F)c3)cc2CC)cnc1N (stereo not shown) [Example 99]",
    "IC50": "26 to 50 nM"
  },
  {
    "compound": "CNC(=O)c1cc(-c2ccc(NC(=O)C(O)c3cc(F)cc(F)c3)cc2C)cnc1N (single isomer, unassigned) [Example 10]",
    "IC50": "1 to 25 nM"
  },
  {
    "compound": "CCNC(=O)c1cc(-c2ccc(NC(=O)C(O)c3cc(F)cc(F)c3)c(F)c2C)cnc1N (stereo not shown) [Example 118]",
    "IC50": "1 to 25 nM"
  },
  {
    "compound": "Cc1cc(NC(=O)Cc2ccc(C(F)(F)F)cc2)ccc1-c1cnc(N)c(C(=O)NC(C)C)c1 [Example 203]",
    "IC50": "2000 to 3000 nM"
  },
  {
    "compound": "Cc1cc(NC(=O)C(C)(O)c2ccccc2)ccc1-c1cnc(N)c(C(=O)NC(C)C)c1 (stereo not shown) [Example 3]",
    "IC50": "101 to 250 nM"
  },
  {
    "compound": "Cc1c(-c2cnc(N)c(C(=O)NC3CC3)c2)ccc(NC(=O)C(O)c2cc(F)cc(F)c2)c1F (stereo not shown) [Example 120]",
    "IC50": "1 to 25 nM"
  },
  {
    "compound": "COC1CC(NC(=O)c2cc(-c3ccc(NC(=O)C(O)c4cc(F)cc(F)c4)cc3C)cnc2N)C1 (stereo not shown) [Example 29]",
    "IC50": "26 to 50 nM"
  }
]
